Values compiled from the Immune Epitope Database (IEDB).

Biological target: HLA-A*01:01
Assay: IEDB peptide-MHC binding, purified MHC/competitive/fluorescence; filed as Kd, often an IC50 or EC50 that approximates it; bounds were set here for any values at or beyond the usual limits of such assays
Details: source organism: Burkholderia mallei ATCC 23344
ASSAY_METRIC: Kd (µM)
Unit µM implied. Number only.

Prompt: What does the data say about its Kd? Entry: EPFSRRHPL
Response: 3.27

---

Molecular target: HLA-A*23:01
Assay: IEDB peptide-MHC binding, purified MHC/direct/fluorescence; filed as Kd, often an IC50 or EC50 that approximates it; bounds were set here for any values at or beyond the usual limits of such assays
Settings: source organism: Brucella suis 1330
ASSAY_METRIC: Kd

Prompt: What does the data say about its Kd? Entry: MHCDFAFWV
Response: ≥ 20 µM

---

Molecular target: HLA-B*15:01
Assay: IEDB peptide-MHC binding, purified MHC/direct/fluorescence; filed as Kd, often an IC50 or EC50 that approximates it; bounds were set here for any values at or beyond the usual limits of such assays
Conditions: source organism: Edwardsiella tarda
ASSAY_METRIC: Kd

Prompt: What does the data say about its Kd? Entry: AFGLFWLVW
Response: ≥ 20 µM

---

Target: HLA-B*27:20
Experiment: IEDB peptide-MHC binding, purified MHC/competitive/fluorescence; filed as Kd, often an IC50 or EC50 that approximates it; bounds were set here for any values at or beyond the usual limits of such assays
Conditions: source organism: Rickettsia bellii RML369-C
ASSAY_METRIC: Kd (nM)
Unit nM implied. Number only.

Prompt: What does the data say about its Kd? Entry: FAYKTGSSM
Response: 23.4

---

Biological target: HLA-B*54:01
Test: IEDB peptide-MHC binding, purified MHC/competitive/radioactivity; filed as Kd, often an IC50 or EC50 that approximates it; bounds were set here for any values at or beyond the usual limits of such assays
Settings: source organism: Hepatitis C virus (isolate 1)
ASSAY_METRIC: Kd (µM)
Unit µM implied. Number only.

Prompt: What does the data say about its Kd? Entry: KLVALGINAV
Response: 19.2

---

Target: HLA-B*57:01
Assay: IEDB peptide-MHC binding, purified MHC/competitive/fluorescence; filed as Kd, often an IC50 or EC50 that approximates it; bounds were set here for any values at or beyond the usual limits of such assays
Settings: source organism: Entamoeba histolytica HM-1:IMSS
pKd: −log10 of the molar value.
ASSAY_METRIC: pKd

Prompt: What does the data say about its pKd? Entry: NPAACSYMV
Response: ≤ 4.70

---

Target: HLA-B*07:02
Test: IEDB peptide-MHC binding, purified MHC/competitive/radioactivity; filed as Kd, often an IC50 or EC50 that approximates it; bounds were set here for any values at or beyond the usual limits of such assays
Settings: source organism: Hepatitis C virus (isolate 1)
ASSAY_METRIC: pKd
Formally, pKd is defined as -log10 of the concentration c, with c in mol/L.

Prompt: What does the data say about its pKd? Entry: KLVALGINAV
Response: 5.66

---

Target: HLA-A*80:01
Assay: IEDB peptide-MHC binding, purified MHC/direct/fluorescence; filed as Kd, often an IC50 or EC50 that approximates it; bounds were set here for any values at or beyond the usual limits of such assays
Conditions: source organism: Homo sapiens
ASSAY_METRIC: Kd

Prompt: What does the data say about its Kd? Entry: WVDSTPPPG
Response: ≥ 20 µM
